Values from the supplement of paper PMC8671470

tested on: K-562; assay: cell viability (% survival relative to DMSO control, bortezomib = 0%); higher = less cytotoxic; conditions: 100 nM; 72 h
quantityKind: cell viability (%)
Kindly answer with a numeric value in %, unit omitted.

Given the entry CN(C/C=C/C#CC(C)(C)C)Cc1cccc2ccccc12 , report its measured cell viability. 106

Given the entry O=C(O)c1cc2sccc2[nH]1 [4H-thieno[3,2-b]pyrrole-5-carboxylic acid] , report its measured cell viability. 101

Moving on to another molecule below.
Given the entry Cc1coc2c1C(=O)C(=O)c1c-2ccc2c(C)cccc12 , report its measured cell viability. 106

###

system: NOMO-1; assay: cell viability (% survival relative to DMSO control, bortezomib = 0%); higher = less cytotoxic; details: 1000 nM; 72 h
quantityKind: cell viability (%)
Kindly answer with a numeric value in %, unit omitted.

Solved entries:
Given the entry Cc1noc2c1-c1ccccc1C(c1ccc(Cl)cc1)=N[C@H]2CC(N)=O , report its measured cell viability. 33.6

Given the entry O=C(O)C(Cl)Cl [Dichloroacetate] , report its measured cell viability. 102

Given the entry C#Cc1cnc(O)nc1O , report its measured cell viability. 104

More entries:
Given the entry OCCN1CCN(CCCN2c3ccccc3Sc3ccc(Cl)cc32)CC1 , report its measured cell viability. 108

Given the entry N[C@](CCCCB(O)O)(CCN1CCCCC1)C(=O)O , report its measured cell viability. 96.4

Given the entry O=P(O)(O)C(O)(Cn1ccnc1)P(=O)(O)O , report its measured cell viability. 103

Given the entry O=C1Nc2ccccc2/C1=C\NCCc1ccc(O)c(O)c1 , report its measured cell viability. 113

Given the entry O=C(O)c1cc2sccc2[nH]1 [4H-thieno[3,2-b]pyrrole-5-carboxylic acid] , report its measured cell viability. 106

Given the entry Cc1ccc(S(=O)(=O)NC2c3ccccc3Oc3ccccc32)cc1 , report its measured cell viability. 97.1

###

tested on: SHI-1; assay: cell viability (% survival relative to DMSO control, bortezomib = 0%); higher = less cytotoxic; settings: 1 nM; 72 h
quantityKind: cell viability

Given the entry OCCN1CCN(CCCN2c3ccccc3Sc3ccc(Cl)cc32)CC1 , report its measured cell viability. 100%

Given the entry N[C@](CCCCB(O)O)(CCN1CCCCC1)C(=O)O , report its measured cell viability. 92%

Given the entry CC12CCC(O)CC1CCC1C2CCC2(C)C(C3=CC(=O)OC3)CCC12O (stereo not given) , report its measured cell viability. 108%

Given the entry Clc1ccc2c(c1Cl)CNCC2 , report its measured cell viability. 116%

Given the entry C=CCc1ccc2c(c1O)C(=O)c1ccccc1C2=O , report its measured cell viability. 101%

###

system: MV4-11; assay: cell viability (% survival relative to DMSO control, bortezomib = 0%); higher = less cytotoxic; conditions: 1000 nM; 72 h
Reported cell viability values are given for each entry in this list.
Kindly answer with a numeric value in %, unit omitted.

Solved entries:
Given the entry CCOC(=O)[C@H]1O[C@@H]1C(=O)N[C@@H](CC(C)C)C(=O)NCCC(C)C [Aloxistatin] , report its measured cell viability. 97.8

Given the entry O=P(O)(O)C(O)(Cn1ccnc1)P(=O)(O)O [Zoledronic acid] , report its measured cell viability. 101

Given the entry C[C@H]1O[C@@H](O[C@H]2[C@@H](O)C[C@H](O[C@H]3[C@@H](O)C[C@H](O[C@H]4CC[C@@]5(C)[C@H](CC[C@@H]6[C@@H]5C[C@@H](O)[C@]5(C)[C@@H](C7=CC(=O)OC7)CC[C@]65O)C4)O[C@@H]3C)O[C@@H]2C)C[C@H](O)[C@@H]1O [Digoxin] , report its measured cell viability. 0.26

Given the entry O=C(O)C(S)=Cc1c[nH]c2ccc(F)cc12 , report its measured cell viability. 103

Given the entry CCOC(=O)N1c2ccc(C(F)(F)F)cc2[C@@H](N(Cc2cc(C(F)(F)F)cc(C(F)(F)F)c2)C(=O)OC)C[C@H]1CC [Torcetrapib] , report its measured cell viability. 84.6

More entries:
Given the entry O=C1Nc2ccccc2/C1=C\NCCc1ccc(O)c(O)c1 [AC1NZZMF] , report its measured cell viability. 84.9

Given the entry [N-]=[N+]=CC(=O)CC[C@H](N)C(=O)O [6-Diazo-5-oxo-L-norleucine] , report its measured cell viability. 97.1

Given the entry Cc1ccc(S(=O)(=O)NC2c3ccccc3Oc3ccccc32)cc1 [AH-7614] , report its measured cell viability. 94.7

Given the entry O=c1c2ccccc2[se]n1-c1ccccc1 [Ebselen] , report its measured cell viability. 99.7

Given the entry c1ccc2c(c1)OCC(=C1NCCN1)O2 [Idazoxan] , report its measured cell viability. 82.9

Given the entry O=C(O)c1nn(Cc2ccc(Cl)cc2Cl)c2ccccc12 [Lonidamine] , report its measured cell viability. 98.1

Given the entry CC(C(=O)O)C(=O)O [Methylmalonate] , report its measured cell viability. 97.1

Given the entry CCOC(=O)[C@@]1(CCCCCCOc2ccc(Cl)cc2)CO1 [Etomoxir] , report its measured cell viability. 85.3

Given the entry CC(C)C[C@H](NC(=O)[C@@H](O)[C@H](N)Cc1ccccc1)C(=O)O [Ubenimex] , report its measured cell viability. 99.8

Given the entry C#Cc1cnc(O)nc1O [Eniluracil] , report its measured cell viability. 108

Given the entry O=C(O)C(Cl)Cl [Dichloroacetate] , report its measured cell viability. 98.5

Given the entry C[C@]12O[C@H](C[C@]1(O)CO)n1c3ccccc3c3c4c(c5c6ccccc6n2c5c31)CNC4=O [Lestaurtinib] , report its measured cell viability. 0.552
